// cross-study collection: IC50 for Dipeptidyl peptidase 4 (Homo sapiens, UniProt P27487)
readout: IC50

compound	readout value
COc1cc(OC)cc(-c2c(CN)c(NCc3cccc(-n4cccc4)c3)nc3c2c(=O)n(C)c(=O)n3C)c1	> 100000 nM
O=C(CNCCNc1ccc(Cl)cn1)N1CCSC1	31100 nM
C[C@@]1(NCC(=O)N2CCC[C@H]2C#N)C[C@H]2CC(C#N)C[C@H]2C1 (some centres unmarked)	1.37 nM
CN(C)S(=O)(=O)N1CC2=C(CN([C@H]3CO[C@H](c4cc(F)ccc4F)[C@@H](N)C3)C2)C1	< 10 nM
N#C[C@@H]1CCCN1C(=O)CNCCNc1nccc(Cl)n1	165 nM
CC#CCn1c(N2CCC[C@@H](N)C2)nc2c1c(=O)n(CC(=O)c1ccccc1-c1cccnc1)c(=O)n2C	2 nM
CS(=O)(=O)N1CC2CCN([C@H]3CO[C@H](c4cc(F)ccc4F)[C@@H](N)C3)C2C1 (some centres unmarked)	< 100 nM
CCCOc1cc(OCCC)cc(-c2c(CN)c(NCc3ccc4ccccc4c3)nc3c2c(=O)n(C)c(=O)n3C)c1	> 100000 nM

----------
pIC50: −log10 of the molar value.
// cross-study collection: pIC50 for Dipeptidyl peptidase 4 (Homo sapiens, UniProt P27487)

molecule	experimental system	comparison symbol	pIC50
COc1cc2c(cc1OC)[C@@H]1C[C@H](N)[C@@H](c3cc(C)ccn3)CN1CC2	Dipeptidyl peptidase 4 (Homo sapiens, UniProt P27487)	=	7.94
CC(C)S(=O)(=O)N1CC2=C(CN([C@H]3CO[C@H](c4cc(F)ccc4F)[C@@H](N)C3)C2)C1	Dipeptidyl peptidase 4 (Homo sapiens, UniProt P27487)	>	8.00
CC(C)=CCC/C(C)=C/CC/C(=C/Cc1cc(O)ccc1O)C(=O)O	Dipeptidyl peptidase 4 (Homo sapiens, UniProt P27487)	=	4.82
CC(=O)N[C@H]1C[C@@H](N2CC3=C(C2)CN(S(C)(=O)=O)C3)CO[C@@H]1c1cc(F)ccc1F	Dipeptidyl peptidase 4 (Homo sapiens, UniProt P27487)	>	7.00
CC(C)=CCC/C(C)=C/CCC1=C[C@@H](c2ccccc2O)OC1=O	Dipeptidyl peptidase 4 (Homo sapiens, UniProt P27487)	=	4.69
CNCC(=O)N1CCCC1B(O)O (centres unmarked)	Dipeptidyl peptidase 4 (Homo sapiens, UniProt P27487)	=	3.25
CCc1cc(N2CCC[C@@H](N)C2)c2c(n1)n(C)c(=O)n2Cc1ccccc1C#N	Dipeptidyl peptidase 4 (Homo sapiens, UniProt P27487)	=	7.71
